- test target: Human immunodeficiency virus type 1 reverse transcriptase (Human immunodeficiency virus 1, UniProt Q72547, P236L)
recorded metric: IC50 (µM)
One number for each entry, in µM.

Would you please look over these solved cases?
[[record]]
item_smiles = "CCN(c1ncccc1NC(C)C)C1CCN(C(=O)c2cc3cc(NS(C)(=O)=O)ccc3[nH]2)CC1"
reported_result = 0.2

[[record]]
item_smiles = "CCN(c1nc(F)ccc1NC(C)(C)C)C1CCN(C(=O)c2cc3cc(NS(=O)(=O)N4CCN(C)CC4)ccc3[nH]2)CC1"
reported_result = 1.09


Now, please, on to the next compound.
Request: What value of IC50 has been recorded for this entry: CCN(c1ncccc1NC(C)(C)C)C1CCN(C(=O)c2cc3cc(NC(=O)N4CCN(C)CC4)ccc3[nH]2)CC1
Response: 0.37

---

- test method notes: Bioavailability at an iv dose of 15 mg/Kg and po dose of 29.1 mg/Kg
- Assay type: ADME, organism-based
- conditions: in vivo, read-out: Bioavailabiility
recorded metric: bioavailability (%)
Numbers only, in %.

Request: What value of bioavailability has been recorded for this entry: CN(c1ncccc1NC(C)(C)C)C1CCN(C(=O)c2cc3cc(NS(C)(=O)=O)ccc3[nH]2)CC1
Response: 44

---

Here's a batch of molecules along with measured pIC50 for Human immunodeficiency virus type 1 reverse transcriptase (Human immunodeficiency virus 1).
Answers are plain numbers, as −log10 of the molar value.

Would you please look over these solved cases?
[[record]]
molecule = "CCN(c1nc(F)ccc1NC(C)(C)C)C1CCN(C(=O)c2cc3cc(NS(=O)(=O)N4CCN(C)CC4)ccc3[nH]2)CC1"
recorded_metric = "pIC50"
reported_result = 6.08

[[record]]
molecule = "CC(C)Nc1cccnc1N(C)C1CCN(C(=O)c2cc3ccc(CO)cc3[nH]2)CC1"
recorded_metric = "pIC50"
reported_result = 6.77


State recorded pIC50 for all listed molecules.
1. CCN(c1ncccc1NC(C)C)C1CCN(C(=O)c2cc3cc(NS(=O)(=O)N4CCN(C)CC4)ccc3[nH]2)CC1
2. CCNc1cccnc1N(CC)C1CCN(C(=O)c2cc3cc(NS(=O)(=O)N4CCN(C)CC4)ccc3[nH]2)CC1
3. CCN(c1ncccc1NC(C)C)C1CCN(C(=O)c2cc3cc(NS(C)(=O)=O)ccc3[nH]2)CC1

Response:
[6.42, 6.62, 6.60]

State recorded pIC50 for all listed molecules.
1. CCc1cc(NCc2nc3c(Cl)ccc(Cl)c3o2)c(O)nc1C [L-697661]
2. CCCNc1cccnc1N(CC)C1CCN(C(=O)c2cc3cc(NS(C)(=O)=O)ccc3[nH]2)CC1
3. CN(c1nc(F)ccc1NC(C)(C)C)C1CCN(C(=O)c2cc3cc(NS(C)(=O)=O)ccc3[nH]2)CC1
4. CN(c1ncccc1NC1CC1)C1CCN(C(=O)c2cc3cc(NS(C)(=O)=O)ccc3[nH]2)CC1
5. CCN(c1ncccc1NC(C)(C)C)C1CCN(C(=O)c2cc3cc(NC(=O)N4CCN(C)CC4)ccc3[nH]2)CC1
6. CCN(c1ncccc1NC(C)C)C1CCN(C(=O)c2cc3cc(NC(=O)N4CCN(C)CC4)ccc3[nH]2)CC1
7. CCNc1cccnc1N(CC)C1CCN(C(=O)c2cc3cc(NS(=O)(=O)C(C)C)ccc3[nH]2)CC1
8. CC(C)Nc1cccnc1N(C1CC1)C1CCN(C(=O)c2cc3cc(NS(C)(=O)=O)ccc3[nH]2)CC1

Response:
6.10
6.89
6.28
7.05
6.66
6.85
6.35
6.64

---

- Tested on: Human immunodeficiency virus 1
- test method notes: Concentration required to inhibit P24 production by 90% against U-90,152 of HIV-1 IIIB (L100I, M230L)
- Format: functional
Would you kindly list IC90 for each of these molecules?
Give bare numbers, in nM.

[[record]]
item_smiles = "CCN(c1nc(F)ccc1NC(C)C)C1CCN(C(=O)c2cc3cc(NS(C)(=O)=O)ccc3[nH]2)CC1"
reported_result = 110

[[record]]
item_smiles = "CN(c1nc(F)ccc1NC(C)(C)C)C1CCN(C(=O)c2cc3cc(NS(C)(=O)=O)ccc3[nH]2)CC1"
reported_result = 1600

[[record]]
item_smiles = "CCN(c1ncccc1NC(C)(C)C)C1CCN(C(=O)c2cc3cc(NS(C)(=O)=O)ccc3[nH]2)CC1"
reported_result = 80

[[record]]
item_smiles = "CCc1cc(NCc2nc3c(Cl)ccc(Cl)c3o2)c(O)nc1C"
reported_result = 4000

[[record]]
item_smiles = "CCN(c1ncccc1NC(C)(C)C)C1CCN(C(=O)c2cc3cc(NS(=O)(=O)N4CCN(C)CC4)ccc3[nH]2)CC1"
reported_result = 140

[[record]]
item_smiles = "CN(c1ncccc1NC(C)(C)C)C1CCN(C(=O)c2cc3cc(NS(C)(=O)=O)ccc3[nH]2)CC1"
reported_result = 830

[[record]]
item_smiles = "CCN(c1nc(F)ccc1NC(C)(C)C)C1CCN(C(=O)c2cc3cc(NC(=O)N4CCN(C)CC4)ccc3[nH]2)CC1"
reported_result = 140


Now, please, on to the next molecule.
Request: What value of IC90 has been recorded for this entry: CCN(c1nc(F)ccc1NC(C)(C)C)C1CCN(C(=O)c2cc3cc(NS(=O)(=O)N4CCN(C)CC4)ccc3[nH]2)CC1
Response: 290

---

- test target: Human immunodeficiency virus type 1 reverse transcriptase (Human immunodeficiency virus 1, UniProt Q72547, Y181C)
pIC50: −log10 of the molar value.
Label Y when pIC50 >= 6; otherwise N.

Answered examples (7):
[[record]]
item_smiles = "CCCN(c1ncccc1NC(C)C)C1CCN(C(=O)c2cc3cc(NS(C)(=O)=O)ccc3[nH]2)CC1"
cat = "Y"

[[record]]
item_smiles = "CCCNc1cccnc1N(CC)C1CCN(C(=O)c2cc3cc(NS(C)(=O)=O)ccc3[nH]2)CC1"
cat = "Y"

[[record]]
item_smiles = "CCN(c1nc(F)ccc1NC(C)(C)C)C1CCN(C(=O)c2cc3cc(NS(=O)(=O)N4CCN(C)CC4)ccc3[nH]2)CC1"
cat = "N"

[[record]]
item_smiles = "CC(C)Nc1ccc(Cl)nc1N(C)C1CCN(C(=O)c2cc3cc(NS(C)(=O)=O)ccc3[nH]2)CC1"
cat = "N"

[[record]]
item_smiles = "CCc1cc(NCc2nc3c(Cl)ccc(Cl)c3o2)c(O)nc1C"
cat = "N"

[[record]]
item_smiles = "CN(c1ncccc1NC1(C)CC1)C1CCN(C(=O)c2cc3cc(NS(C)(=O)=O)ccc3[nH]2)CC1"
cat = "Y"

[[record]]
item_smiles = "CN(c1ncccc1NCC1CC1)C1CCN(C(=O)c2cc3cc(NS(C)(=O)=O)ccc3[nH]2)CC1"
cat = "N"


Request: Identify whether the reported pIC50 of the following compound is 6 or greater: CCN(c1ncccc1NC(C)C)C1CCN(C(=O)c2cc3cc(NS(C)(=O)=O)ccc3[nH]2)CC1
Response: Y

---

- test method notes: Clearance at an iv dose of 14 mg/Kg and po dose of 15 mg/Kg
- Format: ADME, organism-based
- conditions: rat, in vivo
recorded metric: clearance (mL/min/kg)
One number for each entry, in mL/min/kg.

Request: What value of clearance has been recorded for this entry: CC(C)Nc1cccnc1N1CCN(C(=O)c2cc3cc(NS(C)(=O)=O)ccc3[nH]2)CC1.CS(=O)(=O)O [DELAVIRDINE MESYLATE]
Response: 13.6

---

- test target: Human immunodeficiency virus type 1 reverse transcriptase (Human immunodeficiency virus 1, UniProt Q72547)
Would you kindly list pIC50 for each of these molecules?
One number for each entry, as −log10 of the molar value.

Would you please look over these solved cases?
[[record]]
item_smiles = "CNC(=O)Nc1ccc2[nH]c(C(=O)N3CCC(N(C)c4ncccc4NC(C)C)CC3)cc2c1"
reported_result = 6.74

[[record]]
item_smiles = "CC(C)Nc1cccnc1N(C1CC1)C1CCN(C(=O)c2cc3ccccc3[nH]2)CC1"
reported_result = 6.15

[[record]]
item_smiles = "CCN(c1nc(Cl)ccc1NC(C)(C)C)C1CCN(C(=O)c2cc3cc(NS(C)(=O)=O)ccc3[nH]2)CC1"
reported_result = 5.99

[[record]]
item_smiles = "CC(C)Nc1cccnc1N(C)C1CCN(C(=O)c2cc3ccc(OCCOCCOCCO)cc3[nH]2)CC1"
reported_result = 6.52

[[record]]
item_smiles = "CCN(c1nc(F)ccc1NC(C)(C)C)C1CCN(C(=O)c2cc3cc(NS(C)(=O)=O)ccc3[nH]2)CC1"
reported_result = 6.14


State recorded pIC50 for all listed molecules.
1. CCCN(c1ncccc1NC(C)(C)C)C1CCN(C(=O)c2cc3cc(NS(C)(=O)=O)ccc3[nH]2)CC1
2. CCNc1cccnc1N(CC)C1CCN(C(=O)c2cc3cc(NC(=O)N4CCN(C)CC4)ccc3[nH]2)CC1
3. CN(c1ncccc1NC1(C)CC1)C1CCN(C(=O)c2cc3cc(NS(C)(=O)=O)ccc3[nH]2)CC1
4. CCN(c1ncccc1NC(C)(C)C)C1CCN(C(=O)c2cc3cc(NS(=O)(=O)N4CCN(C)CC4)ccc3[nH]2)CC1

Response:
1. 6.32
2. 6.85
3. 6.80
4. 6.10

Values from ChEMBL document CHEMBL1129647
